GPR139 Antagonist Activity Ligand Efficiency reference
# target under test: GPR139 (Homo sapiens, UniProt Q6DWJ6)
# experiment: GPR139 Antagonist titration assay (calcium detection, HEK-GPR139 cells, vs EC80 of S-JNJ-63533054)
Lab note: record just the number, no unit beside it.

CC(C)C(=O)N1CCN(c2nc(-c3ccccc3)c3c(c2C#N)CCCC3)CC1 [SR-01000000597]
0.24
CC1=NN(Cc2ccc(Cl)cc2Cl)C(=O)C1 [SR-01000043246]
0.47
Cc1ccc(CNC(=O)CSc2nc3ccsc3c(=O)n2NC(=O)c2cccc(Br)c2)cc1 [SR-01000564946]
0.24
O=C(Nn1c(-c2cccc(Cl)c2)nc2ccccc2c1=O)c1cc(Br)ccc1Cl [SR-01000433654]
0.25

# lookup: GPR139 Antagonist Activity Ligand Efficiency of COc1cc(C(=O)Nc2ccc(N3C(=O)c4ccc(Cl)cc4C3=O)c(C)c2)cc(OC)c1OC [SR-01000419723]
0.23

# lookup: GPR139 Antagonist Activity Ligand Efficiency of Cc1cc(C)c(NC(=O)c2ccc(Br)cc2)c(C)c1NC(=O)c1ccc(Br)cc1 [SR-01000512383]
0.27

# lookup: GPR139 Antagonist Activity Ligand Efficiency of Cc1cccc(NC(=O)CCC(=O)OCc2ccc(Br)cc2)c1 [SR-01000258561]
0.34

# lookup: GPR139 Antagonist Activity Ligand Efficiency of COc1ccccc1CNC(=O)N1c2ccccc2Sc2ccccc21 [SR-01000506165]
0.30

---

Lipophilic Efficiency (logD) reference
# target under test: GPR139 (Homo sapiens, UniProt Q6DWJ6)
# experiment: GPR139 Agonist titration / agonist counterscreen assay (calcium detection, HEK-GPR139 cells)
# Format: cell-based
# Set-up: expressed in transfected cells; host or cells: HEK Aequorin cells, Maxcyte transient transfection
# settings: GPR139 Agonist Activity; based on logD

Some molecules with known Lipophilic Efficiency (logD) results, for comparison:
Cc1cc(CC(=O)N/C=C/c2cccc3ccccc23)n[nH]1
6.30
Cc1ccc(CCNC(=O)CN2CCN(Cc3ccccc3Cl)C2=O)cc1
3.74
O=C(CSc1ccc(Cl)cc1)Nc1nnc(-c2ccc(F)cc2)o1
3.60
O=C(NCCn1ccc2ccccc21)c1cccs1
3.83
CC12C=CC3(CN(Cc4ccccc4)C(=O)C3C1C(=O)NCc1ccco1)O2 (stereo not drawn)
5.28

# lookup: Lipophilic Efficiency (logD) of O=C(CC(c1ccccc1)c1ccccc1)Oc1coc(CSc2ncccn2)cc1=O
2.69

# lookup: Lipophilic Efficiency (logD) of O=C(Cc1ccccc1)CC1C=CC2=C1c1ccccc1CC2 (stereo not drawn)
4.30

# lookup: Lipophilic Efficiency (logD) of CC(C)CCNC(=O)C1C2C=CC3(CN(Cc4ccccc4Cl)C(=O)C13)O2 (stereo not drawn)
5.19

# lookup: Lipophilic Efficiency (logD) of Cc1ccccc1NC(=O)CSC1=C(C#N)C(c2ccccc2C(F)(F)F)C2=C(CCCC2=O)N1 (stereo not drawn)
1.98

---

# Tested on: parental HEK cells
# experiment: HEK parental Agonist Counterscreen Assay (non-transfected cells)
# Format: cell-based
# settings: HEK Agonist Activity
measured metric: Lipophilic Efficiency (logP)

# lookup: Lipophilic Efficiency (logP) of COc1cc(OC)cc(-c2nnc(NC(=O)Cc3cccc4ccccc34)o2)c1
1.43

# lookup: Lipophilic Efficiency (logP) of O=C(CC(c1ccccc1)c1ccccc1)Oc1coc(CSc2ncccn2)cc1=O
0.13

# lookup: Lipophilic Efficiency (logP) of CCCCNC(=O)NNC(=O)CSc1cc(C)c(Br)cc1C
1.46

---

Efficiency Ligand reference
# target under test: GPR139 (Homo sapiens)
# experiment: GPR139 Agonist titration / agonist counterscreen assay (calcium detection, HEK-GPR139 cells)
# Type: cell-based
# Parameters: expressed in transfected cells; host or cells: HEK Aequorin cells, Maxcyte transient transfection
# settings: GPR139 Agonist Activity; ligand efficiency
Lab note: record just the number, no unit beside it.

Cc1cc(Cl)ccc1OC(C)C(=O)NNC(=O)c1ccccc1 (centres unmarked)
0.48
COc1ccc(CCC(=O)Nc2ccc(OC)c(N3CCCC3=O)c2)cc1
0.38
COc1cc(OC)cc(-c2nnc(NC(=O)Cc3cccc4ccccc34)o2)c1
0.36
Cc1ccc(SCC(=O)NNC(=O)CCC(=O)c2cccs2)cc1
0.39

Here is the next item to consider.
# lookup: Efficiency Ligand of CC(Oc1ccc(Cl)cc1Cl)C(=O)NNC(=O)c1ccc(F)cc1 (centres unmarked)
0.39

---

# Test system: parental HEK cells
# experiment: HEK parental Agonist Counterscreen Assay (non-transfected cells)
# Type: cell-based
# settings: Homo sapiens, HEK293; HEK Agonist Activity section of Table 4 (parental HEK counterscreen)
# Excerpt: The high control for the agonist counterscreen was Forskolin not acetylcholine.
EC50 reference

Cc1ccc(CCC(=O)NNC(=O)CCc2ccccc2)c(Br)c1
> 14.1 µM

# lookup: EC50 of Cc1ccc(CC2CCC(CC(=O)CC3CCCCCCC3)C2=O)cc1 (stereo not drawn)
> 14.1 µM

---

# target under test: GPR139 (Homo sapiens)
# Sequence (Q6DWJ6 1-353): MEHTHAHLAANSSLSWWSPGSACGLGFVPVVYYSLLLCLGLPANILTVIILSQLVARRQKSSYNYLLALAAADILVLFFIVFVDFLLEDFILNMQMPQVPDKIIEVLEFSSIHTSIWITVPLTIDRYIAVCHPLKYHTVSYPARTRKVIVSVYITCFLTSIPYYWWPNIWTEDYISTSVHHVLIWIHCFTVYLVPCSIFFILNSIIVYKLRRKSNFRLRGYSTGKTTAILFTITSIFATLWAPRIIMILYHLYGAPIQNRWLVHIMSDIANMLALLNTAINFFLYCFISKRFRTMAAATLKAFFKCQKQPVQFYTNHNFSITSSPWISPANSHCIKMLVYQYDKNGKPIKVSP
# experiment: GPR139 Agonist titration / agonist counterscreen assay (calcium detection, HEK-GPR139 cells)
# Format: cell-based
# Set-up: expressed in transfected cells; host or cells: HEK Aequorin cells, Maxcyte transient transfection
# settings: GPR139 Agonist Activity; ligand efficiency
Decide using Efficiency Ligand alone. Strictly below 0.4: 1. Equal to or above 0.4: 0.

Use these answered entries as a reference point.
O=C(CSc1ccc(Cl)cc1)NNC(=O)c1ccc(O)cc1
0
CC(C)c1ccc(NC(=O)Cn2ncc3c2-c2ccccc2OC3)cc1
1
CC(C)(C)n1c2c(c(=O)[nH]c1=O)C(NC(=O)CCC1CCCCC1)(C(F)(F)F)C(=O)N2 (stereo not drawn)
1
Cc1cccc(NC(=O)Cn2ncc3c2-c2ccccc2OC3)n1
0
CC1CCC(NC(=O)CCC(=O)N2CCSc3ccccc32)CC1 (stereo not drawn)
0

Criterion: Efficiency Ligand strictly below 0.4. Is it met by Nc1c(Cl)c(Cl)nc(C(=O)OCC(=O)NCc2ccccc2)c1Cl ?
0

Criterion: Efficiency Ligand strictly below 0.4. Is it met by Cc1ccc(CCNC(=O)CN2CCN(Cc3ccccc3Cl)C2=O)cc1 ?
1

Criterion: Efficiency Ligand strictly below 0.4. Is it met by O=C(NCC1Cc2cccc(-c3ccccn3)c2O1)c1ccc(-n2cccn2)cc1 (stereo not drawn) ?
1

Criterion: Efficiency Ligand strictly below 0.4. Is it met by O=C(Cn1ccc2ccccc21)NCCn1cnc(-c2ccccc2)cc1=O ?
1

Criterion: Efficiency Ligand strictly below 0.4. Is it met by O=C(CC1Nc2ccccc2NC1=O)NCC1COc2ccccc2O1 (stereo not drawn) ?
1

Criterion: Efficiency Ligand strictly below 0.4. Is it met by O=C(NCCn1ccc2ccccc21)c1cccc(Br)c1 ?
0

Criterion: Efficiency Ligand strictly below 0.4. Is it met by Cc1nc(CNC(=O)CCC2(Cc3cccc4ccccc34)CCC(=O)N2)cs1 (stereo not drawn) ?
1

Criterion: Efficiency Ligand strictly below 0.4. Is it met by O=C(CN1C(=O)NC2(CCc3ccccc3C2)C1=O)Nc1ccccc1Oc1ccccc1 (stereo not drawn) ?
1

---

Lipophilic Efficiency (logD) reference
# target under test: GPR139 (Homo sapiens, UniProt Q6DWJ6)
# experiment: GPR139 Agonist titration / agonist counterscreen assay (calcium detection, HEK-GPR139 cells)
# Format: cell-based
# Design: expressed in transfected cells; host or cells: HEK Aequorin cells, Maxcyte transient transfection
# settings: GPR139 Agonist Activity; based on logD
# Description: GPR activity was assessed using a calcium detection assay. […] Negative control samples were treated with DMSO. […] Intracellular calcium was measured using Calcium 5.
Lab note: record just the number, no unit beside it.

COc1cc(NC(=O)NCCc2ccc3c(c2)CCCN3C)cc(OC)c1
3.81

# lookup: Lipophilic Efficiency (logD) of C=C1CC(C)(c2ccc(OC)cc2)C(=C)C1CC(=O)CC1CCCCC1 (stereo not drawn)
5.17

# lookup: Lipophilic Efficiency (logD) of COc1cc(-c2nnc(COc3ccc(Cl)cc3C)o2)cc(OC)c1OC
4.45

# lookup: Lipophilic Efficiency (logD) of N#C/C(=C/c1ccc(CNS(=O)(=O)c2ccccc2)o1)C(=O)NCCc1ccccc1
3.78

# lookup: Lipophilic Efficiency (logD) of COc1ccccc1OCC(=O)NCCc1ccc2c(c1)CCCN2C
4.95

# lookup: Lipophilic Efficiency (logD) of COc1ccc(CCNC(=O)c2cccc(-c3ccc(OC)nc3)c2)cc1
3.26

# lookup: Lipophilic Efficiency (logD) of CCn1c(C)nc2cc(C(=O)NNC(=O)Cc3cccc4ccccc34)ccc21
4.29

# lookup: Lipophilic Efficiency (logD) of CC1(c2ccc3ccccc3c2)NC(=O)N(CC(=O)Nc2ccccc2Cl)C1=O (stereo not drawn)
3.74

# lookup: Lipophilic Efficiency (logD) of O=C(CCCOc1ccc(Cl)cc1Cl)NNC(=O)Cc1ccccc1
3.55
